- experimental-system: 5-hydroxytryptamine receptor 2A (Homo sapiens, UniProt P28223)
- Sequence (P28223 whole entry): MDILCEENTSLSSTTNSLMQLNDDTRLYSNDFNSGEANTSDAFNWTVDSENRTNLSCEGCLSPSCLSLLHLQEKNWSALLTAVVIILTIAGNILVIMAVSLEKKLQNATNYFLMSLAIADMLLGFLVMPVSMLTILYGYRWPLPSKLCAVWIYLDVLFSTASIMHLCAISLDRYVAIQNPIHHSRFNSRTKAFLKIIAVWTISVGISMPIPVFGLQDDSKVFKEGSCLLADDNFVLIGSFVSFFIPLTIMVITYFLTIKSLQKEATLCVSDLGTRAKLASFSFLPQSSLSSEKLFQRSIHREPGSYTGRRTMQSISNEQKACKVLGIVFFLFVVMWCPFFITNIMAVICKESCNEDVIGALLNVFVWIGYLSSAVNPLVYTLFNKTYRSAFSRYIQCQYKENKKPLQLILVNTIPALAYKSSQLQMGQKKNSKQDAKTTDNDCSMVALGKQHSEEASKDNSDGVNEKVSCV
- test: Binding affinity to 5-HT2A receptor (unknown origin) assessed as inhibition constant
outcome-measure: Ki (µM)

[[record]]
compound = "CCN(CC)CCCC(C)Nc1cnc(C(=O)Nc2ccc(Cl)c3cccnc23)cn1 (stereo unspecified)"
value_observed = 1.25


---

- experimental-system: Sigma intracellular receptor 2 (Homo sapiens, UniProt Q5BJF2)
- Sequence (Q5BJF2 whole entry): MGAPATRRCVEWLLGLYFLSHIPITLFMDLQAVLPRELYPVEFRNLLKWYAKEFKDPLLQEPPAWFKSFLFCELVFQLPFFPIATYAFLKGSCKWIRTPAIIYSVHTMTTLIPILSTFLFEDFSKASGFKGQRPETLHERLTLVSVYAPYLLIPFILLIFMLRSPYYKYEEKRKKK
- test: Displacement of [3H][…]ditolylguanidine from human sigma 2 receptor transfected in human HEK293T cells assessed as inhibition constant by radioligand competition binding assay
outcome-measure: Ki (nM)

[[record]]
compound = "CN(C)CCNc1cnc(C(=O)Nc2cc(F)cc3cccnc23)cn1"
experimental_system = "Sigma intracellular receptor 2 (Homo sapiens, UniProt Q5BJF2)"
measurement_unit = "nM"
value_observed = 471

[[record]]
compound = "Cc1cc(NC(=O)c2cnc(N3CCN(CCN)CC3)cn2)c2ncccc2c1"
experimental_system = "Sigma intracellular receptor 2 (Homo sapiens, UniProt Q5BJF2)"
measurement_unit = "nM"
value_observed = 129

[[record]]
compound = "O=C(Nc1cc(F)cc2cccnc12)c1cnc(NCCN2CCCC2)cn1"
experimental_system = "Sigma intracellular receptor 2 (Homo sapiens, UniProt Q5BJF2)"
measurement_unit = "nM"
value_observed = 165

[[record]]
compound = "Cc1cc(NC(=O)c2cnc(NCCN3CCNCC3)cn2)c2ncccc2c1"
experimental_system = "Sigma intracellular receptor 2 (Homo sapiens, UniProt Q5BJF2)"
measurement_unit = "nM"
value_observed = 400

[[record]]
compound = "CCN(CC)CCCC(C)Nc1cnc(C(=O)Nc2cc(F)c(Cl)c3cccnc23)cn1 (stereo not given)"
experimental_system = "Sigma intracellular receptor 2 (Homo sapiens, UniProt Q5BJF2)"
measurement_unit = "nM"
value_observed = 28

